For Delta-type opioid receptor (Homo sapiens, UniProt P41143), measured AC50 is reported for the entries below.

Input: Find the recorded AC50 belonging to NC1=NC(=O)C(c2ccccc2)O1 (configuration not stated) [PEMOLINE] and report it.
Output: > 30 µM

Input: // next record NC(=O)c1ncn([C@@H]2O[C@H](CO)[C@@H](O)[C@H]2O)c1O [MIZORIBINE]
Output: > 30 µM

Input: // next record CN1CCN(C(=O)OC2c3nccnc3C(=O)N2c2ccc(Cl)cn2)CC1 (configuration not stated) [ZOPICLONE]
Output: > 10 µM

Input: // next record NS(=O)(=O)c1cc(Cl)c(Cl)c(S(N)(=O)=O)c1 [DICHLORPHENAMIDE]
Output: > 30 µM

Input: // next record CCNC(C)Cc1cccc(C(F)(F)F)c1 (configuration not stated) [FENFLURAMINE]
Output: > 30 µM

More entries:
Input: Find the recorded AC50 belonging to Nc1nc2ccc(OC(F)(F)F)cc2s1 [RILUZOLE] and report it.
Output: > 30 µM

Input: // next record NC(N)=Nc1nc(CSCCC(N)=NS(N)(=O)=O)cs1 [FAMOTIDINE]
Output: > 10 µM

Input: // next record CCCCC(C)(O)C/C=C/[C@H]1[C@H](O)CC(=O)[C@@H]1CCCCCCC(=O)OC (some centres not stated) [MISOPROSTOL]
Output: > 30 µM

Input: // next record CN1C(=O)CC(c2ccccc2)C1=O (configuration not stated) [PHENSUXIMIDE]
Output: > 30 µM

Input: // next record NC[C@H]1O[C@H](O[C@H]2[C@H](O)[C@@H](O[C@H]3O[C@H](CO)[C@@H](O)[C@H](N)[C@H]3O)[C@H](N)C[C@@H]2N)[C@H](O)[C@@H](O)[C@@H]1O [KANAMYCIN]
Output: > 30 µM

---

Measured Target: cGMP-inhibited 3',5'-cyclic phosphodiesterase 3A (Homo sapiens, UniProt Q14432); note: assay procedure not described here
Sequence (Q14432 whole entry): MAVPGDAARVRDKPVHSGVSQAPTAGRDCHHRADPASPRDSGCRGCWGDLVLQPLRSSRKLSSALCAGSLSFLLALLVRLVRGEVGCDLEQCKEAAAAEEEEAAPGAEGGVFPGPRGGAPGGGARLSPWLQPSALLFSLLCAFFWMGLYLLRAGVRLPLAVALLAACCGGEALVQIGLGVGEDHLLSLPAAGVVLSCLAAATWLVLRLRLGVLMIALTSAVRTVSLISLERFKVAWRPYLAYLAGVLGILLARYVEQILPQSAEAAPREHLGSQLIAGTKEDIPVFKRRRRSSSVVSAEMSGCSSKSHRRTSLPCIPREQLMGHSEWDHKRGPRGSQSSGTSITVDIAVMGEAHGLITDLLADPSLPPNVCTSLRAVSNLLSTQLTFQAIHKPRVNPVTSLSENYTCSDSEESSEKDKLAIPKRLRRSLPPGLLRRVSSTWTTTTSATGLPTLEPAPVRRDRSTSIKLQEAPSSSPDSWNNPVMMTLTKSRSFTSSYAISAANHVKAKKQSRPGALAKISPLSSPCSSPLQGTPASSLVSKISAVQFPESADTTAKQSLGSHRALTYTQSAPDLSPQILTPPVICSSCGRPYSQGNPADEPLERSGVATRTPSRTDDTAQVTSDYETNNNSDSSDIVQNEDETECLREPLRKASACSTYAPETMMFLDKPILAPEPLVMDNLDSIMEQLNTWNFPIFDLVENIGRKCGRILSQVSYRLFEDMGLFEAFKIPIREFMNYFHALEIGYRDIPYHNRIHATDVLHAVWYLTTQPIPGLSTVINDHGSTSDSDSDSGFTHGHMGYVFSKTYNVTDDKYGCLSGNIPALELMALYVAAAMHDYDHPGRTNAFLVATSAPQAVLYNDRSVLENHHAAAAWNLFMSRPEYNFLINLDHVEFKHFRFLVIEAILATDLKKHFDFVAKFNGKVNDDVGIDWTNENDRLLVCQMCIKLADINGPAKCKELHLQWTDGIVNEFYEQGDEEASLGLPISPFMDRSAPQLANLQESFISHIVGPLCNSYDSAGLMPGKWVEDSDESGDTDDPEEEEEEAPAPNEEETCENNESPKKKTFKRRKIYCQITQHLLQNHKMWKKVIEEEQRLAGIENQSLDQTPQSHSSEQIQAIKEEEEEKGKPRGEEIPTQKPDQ
Assay type: functional
Value Kind: AC50

Here are 5 compounds together with their reported answers.
Input: Find the recorded AC50 belonging to C#C[C@]1(O)CC[C@H]2[C@@H]3CCc4cc(O)ccc4[C@H]3CC[C@@]21C [ETHINYL ESTRADIOL] and report it.
Output: 16 µM

Input: // next record C#CCN(C)[C@H](C)Cc1ccccc1 [SELEGILINE]
Output: > 30 µM

Input: // next record Cc1nc2ccc(CN(C)c3ccc(C(=O)N[C@@H](CCC(=O)O)C(=O)O)s3)cc2c(=O)[nH]1 [RALTITREXED]
Output: > 30 µM

Input: // next record CC(=O)NS(=O)(=O)c1ccc(N)cc1 [SULFACETAMIDE]
Output: > 30 µM

Input: // next record CN(C)CCCN1c2ccccc2Sc2ccccc21 [PROMAZINE]
Output: 15 µM

More entries:
Input: Find the recorded AC50 belonging to C1COC(NC(C2CC2)C2CC2)=N1 [RILMENIDINE] and report it.
Output: > 30 µM

Input: // next record CO/N=C(\C(=O)N[C@@H]1C(=O)N2C(C(=O)[O-])=C(C[N+]3(C)CCCC3)CS[C@H]12)c1csc(N)n1
Output: > 300 µM

Input: // next record Cc1ccc(C(=O)c2cc(O)c(O)c([N+](=O)[O-])c2)cc1 [TOLCAPONE]
Output: 18 µM

Input: // next record OCCN1CCN(CCCN2c3ccccc3C=Cc3ccccc32)CC1 [OPIPRAMOL]
Output: > 30 µM
